Hello, the source for this data is paper PMC7558026, in case you need it.

System: SGLT2 (Homo sapiens)
Construct: Human full-length SGLT2 cDNA (NM_003041.3) was synthesized; expressed in transfected cells; host or cells: HEK293, retroviral transduction with pMSCVpuro-SGLT2, puromycin selected
Sequence (P31639 1-672): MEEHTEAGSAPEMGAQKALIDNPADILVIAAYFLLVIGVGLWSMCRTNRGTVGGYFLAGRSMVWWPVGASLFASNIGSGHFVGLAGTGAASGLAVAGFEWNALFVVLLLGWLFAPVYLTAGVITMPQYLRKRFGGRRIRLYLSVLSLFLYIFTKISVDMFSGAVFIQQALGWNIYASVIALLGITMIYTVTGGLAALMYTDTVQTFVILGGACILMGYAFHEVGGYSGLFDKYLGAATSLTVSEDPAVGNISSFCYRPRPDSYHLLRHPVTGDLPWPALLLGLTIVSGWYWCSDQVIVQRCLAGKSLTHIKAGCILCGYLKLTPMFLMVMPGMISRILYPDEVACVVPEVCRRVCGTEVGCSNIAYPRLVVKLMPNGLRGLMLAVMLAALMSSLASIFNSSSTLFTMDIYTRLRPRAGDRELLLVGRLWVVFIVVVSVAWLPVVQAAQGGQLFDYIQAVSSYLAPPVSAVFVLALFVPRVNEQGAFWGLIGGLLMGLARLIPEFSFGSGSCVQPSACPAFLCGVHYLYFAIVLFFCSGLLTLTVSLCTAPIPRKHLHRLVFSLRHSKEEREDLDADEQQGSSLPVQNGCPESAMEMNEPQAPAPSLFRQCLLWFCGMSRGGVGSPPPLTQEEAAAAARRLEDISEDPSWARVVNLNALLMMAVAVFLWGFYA
Test description: 1-NBDG uptake in HEK293 cells stably expressing SGLT2
Format: cell-based
Measurement parameters: HEK293, compound at 10 μM; triplicate; read-out: SGLT2 inhibitory rates
Catalogue of molecules with associated inhibition at 10 µM
Endpoint name: inhibition at 10 µM (%)

>  <Molecule>
Oc1cc(O)c(Cc2ccc(Cl)cc2)c(O)c1

>  <Endpoint name>
inhibition at 10 µM

>  <Unit tag>
%

>  <Operator symbol>
=

>  <Measurement>
0.2

$$$$
>  <Molecule>
O=C(CCc1ccc(O)cc1)c1c(O)cc(O)c(C2OC(CO)C(O)C(O)C2O)c1O [Compound 17b, phloretin-3′-C-β-D-galactoside]

>  <Endpoint name>
inhibition at 10 µM

>  <Unit tag>
%

>  <Operator symbol>
=

>  <Measurement>
-3.1

$$$$
>  <Molecule>
Cc1ccc(Cc2c(O)cc(O)cc2O)cc1

>  <Endpoint name>
inhibition at 10 µM

>  <Unit tag>
%

>  <Operator symbol>
=

>  <Measurement>
10.8

$$$$
>  <Molecule>
OCC1OC(c2c(O)cc(O)c(CCc3ccc(Cl)cc3)c2O)C(O)C(O)C1O (stereo not drawn) [Compound 54a]

>  <Endpoint name>
inhibition at 10 µM

>  <Unit tag>
%

>  <Operator symbol>
=

>  <Measurement>
62.5

$$$$
>  <Molecule>
O=C(CCc1ccc(O)cc1)c1c(O)cc(O)c([C@@H]2O[C@H](CO)[C@@H](O)[C@H](O)[C@H]2O)c1O [Compound 17a]

>  <Endpoint name>
inhibition at 10 µM

>  <Unit tag>
%

>  <Operator symbol>
=

>  <Measurement>
52.2

$$$$
>  <Molecule>
Oc1cc(O)c(CCc2ccc(Cl)cc2)c(O)c1

>  <Endpoint name>
inhibition at 10 µM

>  <Unit tag>
%

>  <Operator symbol>
=

>  <Measurement>
0.2

$$$$
>  <Molecule>
Oc1cc(O)c(Cc2ccsc2)c(O)c1

>  <Endpoint name>
inhibition at 10 µM

>  <Unit tag>
%

>  <Operator symbol>
=

>  <Measurement>
2.7

$$$$
>  <Molecule>
OCC1OC(c2c(O)cc(O)c(CCc3ccc4c(c3)CCO4)c2O)C(O)C(O)C1O (stereo not drawn) [Compound 52a]

>  <Endpoint name>
inhibition at 10 µM

>  <Unit tag>
%

>  <Operator symbol>
=

>  <Measurement>
36.7

$$$$
>  <Molecule>
Oc1cc(O)c(Cc2ccc(F)cc2)c(O)c1

>  <Endpoint name>
inhibition at 10 µM

>  <Unit tag>
%

>  <Operator symbol>
=

>  <Measurement>
0.2

$$$$
>  <Molecule>
Oc1cc(O)c(Cc2ccc3nccnc3c2)c(O)c1

>  <Endpoint name>
inhibition at 10 µM

>  <Unit tag>
%

>  <Operator symbol>
=

>  <Measurement>
0.2

$$$$
>  <Molecule>
COc1ccc(CCc2ccc(O)c([C@@H]3O[C@H](CO)[C@@H](O)[C@H](O)[C@H]3O)c2O)cc1 [Compound 21a]

>  <Endpoint name>
inhibition at 10 µM

>  <Unit tag>
%

>  <Operator symbol>
=

>  <Measurement>
22.7

$$$$
>  <Molecule>
Oc1cc(O)c(CCc2ccc(F)cc2)c(O)c1

>  <Endpoint name>
inhibition at 10 µM

>  <Unit tag>
%

>  <Operator symbol>
=

>  <Measurement>
0.2

$$$$
>  <Molecule>
OCC1OC(c2c(O)cc(O)c(Cc3ccc4nccnc4c3)c2O)C(O)C(O)C1O (stereo not drawn) [Compound 44a]

>  <Endpoint name>
inhibition at 10 µM

>  <Unit tag>
%

>  <Operator symbol>
>

>  <Measurement>
96

$$$$
>  <Molecule>
Oc1cc(O)c(CCc2ccc3c(c2)CCO3)c(O)c1

>  <Endpoint name>
inhibition at 10 µM

>  <Unit tag>
%

>  <Operator symbol>
=

>  <Measurement>
0.8

$$$$
>  <Molecule>
OCC1OC(c2c(O)cc(O)c(CCc3ccccc3)c2O)C(O)C(O)C1O (stereo not drawn) [Compound 39a]

>  <Endpoint name>
inhibition at 10 µM

>  <Unit tag>
%

>  <Operator symbol>
=

>  <Measurement>
23.6

$$$$
>  <Molecule>
OCC1OC(c2c(O)cc(O)c(Cc3ccsc3)c2O)C(O)C(O)C1O (stereo not drawn) [Compound 42a]

>  <Endpoint name>
inhibition at 10 µM

>  <Unit tag>
%

>  <Operator symbol>
=

>  <Measurement>
68.5

$$$$
>  <Molecule>
OCC1OC(c2c(O)cc(O)c(Cc3ccc(-c4ccccc4)cc3)c2O)C(O)C(O)C1O (stereo not drawn) [Compound 50a]

>  <Endpoint name>
inhibition at 10 µM

>  <Unit tag>
%

>  <Operator symbol>
>

>  <Measurement>
96

$$$$
>  <Molecule>
OCC1OC(c2c(O)cc(O)c(Cc3ccc(F)cc3)c2O)C(O)C(O)C1O (stereo not drawn) [Compound 48a]

>  <Endpoint name>
inhibition at 10 µM

>  <Unit tag>
%

>  <Operator symbol>
=

>  <Measurement>
85.4

$$$$

* * *

System: AbCGT V183E (Aloe vera, UniProt A0A7G9P699, V183E)
Sequence (A0A7G9P699 1-470 V183E): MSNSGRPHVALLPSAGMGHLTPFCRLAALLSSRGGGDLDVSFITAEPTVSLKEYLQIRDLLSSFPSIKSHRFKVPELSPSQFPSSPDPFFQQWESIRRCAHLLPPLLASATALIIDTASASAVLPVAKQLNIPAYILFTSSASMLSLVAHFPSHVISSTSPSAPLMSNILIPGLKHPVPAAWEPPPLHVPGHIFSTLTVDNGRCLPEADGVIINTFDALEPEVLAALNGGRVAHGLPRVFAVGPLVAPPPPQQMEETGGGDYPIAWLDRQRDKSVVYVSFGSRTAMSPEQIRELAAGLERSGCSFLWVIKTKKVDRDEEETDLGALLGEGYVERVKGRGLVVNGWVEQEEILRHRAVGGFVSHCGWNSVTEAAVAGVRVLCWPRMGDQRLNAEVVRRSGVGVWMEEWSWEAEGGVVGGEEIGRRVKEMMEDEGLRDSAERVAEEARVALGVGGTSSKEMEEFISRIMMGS
Test description: Glycosyltransferase activity of AbCGT variant V183E
Assay type: biochemical, Aloe barbadensis
Measurement parameters: reaction-3

>  <Compound>
CC(=O)c1cccc(O)c1

>  <V183E/yield of O-glycoside(%)>
0%

$$$$
>  <Compound>
COc1cc(O)c(C(C)=O)c(O)c1

>  <V183E/yield of O-glycoside(%)>
1.1%

$$$$
>  <Compound>
CC(=O)c1cc(O)cc(O)c1 [Compound 4, 3,5-dihydroxyacetophenone]

>  <V183E/yield of O-glycoside(%)>
0%

$$$$

* * *

System: AbCGT V183D (Aloe vera, UniProt A0A7G9P699, V183D)
Sequence (A0A7G9P699 1-470 V183D): as the sequence (A0A7G9P699 1-470 V183E) above, with E183D counted along it
Test description: Glycosyltransferase activity of AbCGT variant V183D
Assay type: biochemical, Aloe barbadensis
Measurement parameters: reaction-2
This section presents compounds with their documented V183D/yield of C-glycoside(%) values.

>  <Compound>
CC(=O)c1cccc(O)c1

>  <Unit tag>
%

>  <V183D/yield of C-glycoside(%)>
0

$$$$
>  <Compound>
CC(=O)c1ccccc1O

>  <Unit tag>
%

>  <V183D/yield of C-glycoside(%)>
0

$$$$
>  <Compound>
COc1cc(O)c(C(C)=O)c(O)c1

>  <Unit tag>
%

>  <V183D/yield of C-glycoside(%)>
7.3

$$$$
>  <Compound>
CC(=O)c1ccc(O)cc1O [Compound 6, 2,4-dihydroxyacetophenone]

>  <Unit tag>
%

>  <V183D/yield of C-glycoside(%)>
12.3

$$$$
>  <Compound>
Oc1cc(O)cc(OCCCCCCc2ccccc2)c1

>  <Unit tag>
%

>  <V183D/yield of C-glycoside(%)>
0

$$$$
>  <Compound>
COc1cc(O)c(C(C)=O)c(OC)c1

>  <Unit tag>
%

>  <V183D/yield of C-glycoside(%)>
0

$$$$

* * *

In this section, each of the compounds is paired with its reported conversion rates, di-C-glycosylation.
System: AbCGT (Aloe vera)
Sequence (A0A7G9P699 entry or part of it): as the sequence (A0A7G9P699 1-470 V183E) above, with E183V counted along it
Test description: Glycosyltransferase activity assay, purified AbCGT (wild type) with aglycon acceptors and UDP-Glc
Type: biochemical, Aloe barbadensis
Measurement parameters: aglycon acceptor with UDP-Glc, pH 7.4, 30 °C, up to 12 h; Reaction-1 to -3

>  <Compound>
CC(=O)c1c(C)cc(O)cc1O [Compound 9]

>  <conversion rates, di-C-glycosylation>
0%

$$$$
>  <Compound>
CC(=O)c1cccc(O)c1 [Compound 2]

>  <conversion rates, di-C-glycosylation>
0%

$$$$
>  <Compound>
Cc1cc(O)cc(O)c1C=O [Compound 8]

>  <conversion rates, di-C-glycosylation>
0%

$$$$
>  <Compound>
CC(=O)c1c(O)cccc1O [Compound 5]

>  <conversion rates, di-C-glycosylation>
0%

$$$$
>  <Compound>
COc1ccc(Cc2c(O)cc(O)cc2O)cc1OC [Compound 20]

>  <conversion rates, di-C-glycosylation>
0%

$$$$
>  <Compound>
COc1cc(O)c(C(C)=O)c(O)c1 [Compound 13]

>  <conversion rates, di-C-glycosylation>
0%

$$$$
>  <Compound>
O=Cc1c(O)cc(O)cc1O [Compound 10]

>  <conversion rates, di-C-glycosylation>
100%

$$$$
>  <Compound>
COc1cc(OC)c(C(C)=O)c(OC)c1 [Compound 15]

>  <conversion rates, di-C-glycosylation>
0%

$$$$
>  <Compound>
CC(=O)c1c(O)cc(O)cc1O [Compound 11, phloracetophene]

>  <conversion rates, di-C-glycosylation>
100%

$$$$
>  <Compound>
O=C1CC(O)(c2ccc(O)cc2)Oc2cc(O)cc(O)c21 (centres unmarked) [Compound 23, 2-hydroxynaringenin]

>  <conversion rates, di-C-glycosylation>
0%

$$$$
>  <Compound>
CC(=O)c1ccccc1O [Compound 1]

>  <conversion rates, di-C-glycosylation>
0%

$$$$
>  <Compound>
CC(=O)c1c(O)cc(C)cc1O [Compound 7]

>  <conversion rates, di-C-glycosylation>
0%

$$$$
>  <Compound>
O=C(CCc1ccc(O)cc1)c1c(O)cc(O)cc1O [Compound 17, phloretin]

>  <conversion rates, di-C-glycosylation>
100%

$$$$
>  <Compound>
Cc1cc(=O)oc2cc(S)ccc12 [Compound 25, 7-mercapto-4-methylcoumarin]

>  <conversion rates, di-C-glycosylation>
0%

$$$$
>  <Compound>
Oc1cc(O)cc(OCCCCCCc2ccccc2)c1 [Compound 22]

>  <conversion rates, di-C-glycosylation>
0%

$$$$
>  <Compound>
CC(=O)c1ccc(O)cc1 [Compound 3]

>  <conversion rates, di-C-glycosylation>
0%

$$$$
>  <Compound>
CC(=O)c1ccc(O)cc1O [Compound 6, 2,4-dihydroxyacetophenone]

>  <conversion rates, di-C-glycosylation>
0%

$$$$
>  <Compound>
COc1ccc(CCc2ccc(O)cc2O)cc1 [Compound 21]

>  <conversion rates, di-C-glycosylation>
0%

$$$$
>  <Compound>
CC(=O)c1c(O)cc(O)c(C(C)=O)c1O [Compound 12]

>  <conversion rates, di-C-glycosylation>
0%

$$$$
>  <Compound>
CCCCC(=O)c1c(O)cc(O)cc1O [Compound 16]

>  <conversion rates, di-C-glycosylation>
100%

$$$$
>  <Compound>
CC(=O)c1cc(O)cc(O)c1 [Compound 4, 3,5-dihydroxyacetophenone]

>  <conversion rates, di-C-glycosylation>
0%

$$$$
>  <Compound>
COc1cc(O)c(C(C)=O)c(OC)c1 [Compound 14]

>  <conversion rates, di-C-glycosylation>
0%

$$$$
>  <Compound>
Cc1cc(=O)oc2cc(O)ccc12 [Compound 24, 7-hydroxy-4-methylcoumarin]

>  <conversion rates, di-C-glycosylation>
0%

$$$$
